Just for reference, ChEMBL document CHEMBL4321817 is where these values come from.

experiment: Stability in human liver microsomes assessed as half life; assay type: ADME, Microsome
assay_metric: half-life
Please provide the amount together with its unit, number first.

Data request: Quick one: half-life of CC1(C)C(N)=Nc2cc(OCCCN3Cc4ccc(OCCc5cn(CC(=O)N6CCC(CCN7CCCC7)CC6)nn5)cc4C3)c(OCC3CC3)cc21 ?
Data returned: 1.14 h

###

experiment: Stability in moue liver microsomes assessed as intrinsic clearance; assay type: ADME, Microsome; details: mouse, read-out: CLH
assay_metric: microsomal CLint

Data request: Give the measured microsomal CLint of CC1(C)C(N)=Nc2cc(OCCCN3Cc4ccc(OCCc5cn(CC(=O)N6CCC(CCN7CCCC7)CC6)nn5)cc4C3)c(OCC3CC3)cc21 .
Data returned: 37.4 µL/min/mg

###

system: U2OS; assay: Cytotoxicity against human U2OS cells assessed as reduction in cell viability at >3 uM incubated for 2 days by propidium iodide staining based assay; settings: 48 h
assay_metric: Activity

Would you please look over these solved cases?
>  <query_smiles>
CC1(C)C(N)=Nc2cc(OCCCCN3Cc4ccccc4C3)c(OCC3CC3)cc21

>  <observed_result>
Toxic

$$$$
>  <query_smiles>
CC1(C)C(N)=Nc2cc(OCCCN3Cc4ccc(OCCc5cn(CC(=O)N6CCC(CCN7CCCC7)CC6)nn5)cc4C3)c(OCC3CC3)cc21

>  <observed_result>
Non-Toxic

$$$$
>  <query_smiles>
NC1=Nc2cc(OCCCCN3Cc4ccccc4C3)c(OCC3CC3)cc2C12CCCC2

>  <observed_result>
Toxic

$$$$
>  <query_smiles>
NC1=Nc2cc(OCCCN3Cc4ccccc4C3)c(OCC3CC3)cc2C12CCCC2

>  <observed_result>
Toxic

$$$$
>  <query_smiles>
CC1(C)C(N)=Nc2cc(OCCCN3Cc4ccccc4C3)c(OCC3CC3)cc21

>  <observed_result>
Toxic

$$$$

Below: the item to evaluate.
Data request: Request: Activity, test system U2OS, entry CC1(C)C(N)=Nc2cc(OCCCCN3Cc4ccc(OCc5cn(CC(=O)N6CCC(CCN7CCCC7)CC6)nn5)cc4C3)c(OCC3CC3)cc21
Data returned: Non-Toxic

###

assay: Stability in human liver microsomes assessed as intrinsic clearance; type: ADME, Microsome; settings: read-out: CLH
assay_metric: microsomal CLint (µL/min/mg)
Number only, in µL/min/mg; omit the unit.

Data request: Dear colleague, I am looking for the recorded microsomal CLint of the following molecule: CC1(C)C(N)=Nc2cc(OCCCN3Cc4ccc(OCCc5cn(CC(=O)N6CCC(CCN7CCCC7)CC6)nn5)cc4C3)c(OCC3CC3)cc21
Data returned: 20.3

###

experiment: Apparent permeability from apical side to basolateral side in human Caco2 cells; format: ADME, cell-based; conditions: Caco-2
assay_metric: Papp A→B

Data request: For the compound CC1(C)C(N)=Nc2cc(OCCCN3Cc4ccc(OCCc5cn(CC(=O)N6CCC(CCN7CCCC7)CC6)nn5)cc4C3)c(OCC3CC3)cc21 , what Papp A→B is on record?
Data returned: 6.59 ×10⁻⁶ cm/s

###

In this section we review reported IC50 values for a set of compounds.
biological target: Spindlin-1 (Homo sapiens, UniProt Q9Y657); experiment: Displacement of trimethylated biotinylated histone H3 peptide from recombinant human His-tagged SPIN1 (26 to 262 residues) expressed in Escherichia coli BL21 (DE3) incubated for 30 mins followed by peptide addition and measured after 1 hr by Alphascreen method
Sequence (Q9Y657 whole entry, the tested form may be a part): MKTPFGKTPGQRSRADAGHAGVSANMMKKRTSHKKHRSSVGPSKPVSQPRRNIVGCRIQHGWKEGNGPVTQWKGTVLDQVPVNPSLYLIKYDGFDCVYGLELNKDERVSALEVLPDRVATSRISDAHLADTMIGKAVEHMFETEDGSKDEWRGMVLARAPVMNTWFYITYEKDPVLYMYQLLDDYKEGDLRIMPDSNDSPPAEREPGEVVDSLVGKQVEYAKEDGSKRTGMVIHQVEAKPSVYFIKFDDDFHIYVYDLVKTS
Express the result in µM but write the number alone.

A selection of reference data follows.
>  <query_smiles>
COc1cc2c(cc1OCCCN1Cc3ccccc3C1)N=C(N)C21CCCC1

>  <IC50 (µM)>
0.66

$$$$
>  <query_smiles>
NC1=Nc2cc(OCCCN3CCCC3)c(OCC3CC3)cc2C12CCCC2

>  <IC50 (µM)>
1.12

$$$$
>  <query_smiles>
CC(C)Oc1cc2c(cc1OCCCN1CCCC1)N=C(N)C21CCCC1

>  <IC50 (µM)>
8.91

$$$$
>  <query_smiles>
COc1ccc2c(c1)CN(CCCOc1cc3c(cc1OC)C1(CCCC1)C(N)=N3)C2

>  <IC50 (µM)>
0.6

$$$$

Data request: Write down the reported IC50 of COc1ccc2c(c1)CN(CCCOc1cc3c(cc1OCC1CC1)C1(CCCC1)C(N)=N3)C2 , test system: Spindlin-1 (Homo sapiens, UniProt Q9Y657).
Data returned: 0.34

Data request: Recall the recorded IC50 for COc1cc2c(cc1OCCCN1Cc3cccc(OC)c3C1)N=C(N)C21CCCC1 with Spindlin-1 (Homo sapiens, UniProt Q9Y657) and state it.
Data returned: 6.65

Data request: // map NC1=Nc2cc(OCCCCN3Cc4ccccc4C3)c(OCC3CC3)cc2C12CCCC2 to recorded IC50 (system: Spindlin-1 (Homo sapiens, UniProt Q9Y657))
Data returned: 6.22

Data request: What value of IC50 on Spindlin-1 (Homo sapiens, UniProt Q9Y657) does CC1(C)C(N)=Nc2cc(OCCCCN3Cc4ccccc4C3)c(OCC3CC3)cc21 have?
Data returned: 6.92
